Each recorded value in this set is attributed to ChEMBL document CHEMBL1221305.

- Tested on: Toxoplasma gondii
- Test summary: Antimicrobial activity against Toxoplasma gondii infected in HFF after 8 days by plaque assay
- Assay type: functional, organism-based
- Details: 192 h
Answer each item with its documented log10 of IC50.
Recall that a logarithmic scale is used here: each number is log10 of IC50 in nM.

Request: Give the value of log10 of IC50 reported for the following: CCCN(CCC)c1c([N+](=O)[O-])cc(S(=O)(=O)Nc2ccc(O)cc2)cc1[N+](=O)[O-]
Response: 3.41

Request: Give the value of log10 of IC50 reported for the following: NS(=O)(=O)c1cc([N+](=O)[O-])c(N(CCCCl)Cc2ccccc2)c([N+](=O)[O-])c1
Response: 3.41

Request: Give the value of log10 of IC50 reported for the following: CCCN(CCC)c1c([N+](=O)[O-])cc(S(=O)(=O)N(C)C)cc1[N+](=O)[O-]
Response: 3.53

Request: Give the value of log10 of IC50 reported for the following: CCCN(CCC)c1c([N+](=O)[O-])cc(C(F)(F)F)c(N)c1[N+](=O)[O-]
Response: 1.56

Request: Give the value of log10 of IC50 reported for the following: CCCN(CCC)c1c([N+](=O)[O-])cc(S(N)(=O)=O)cc1[N+](=O)[O-] [ORYZALIN]
Response: 2.40

Request: Give the value of log10 of IC50 reported for the following: CCCCN(CCCC)c1c([N+](=O)[O-])cc(C(F)(F)F)c(N)c1[N+](=O)[O-]
Response: 2.71

Request: Give the value of log10 of IC50 reported for the following: CCN(CC)c1c([N+](=O)[O-])cc(C(F)(F)F)c(N)c1[N+](=O)[O-] [DINITRAMINE]
Response: 1.85

----------
Answer each item with its documented log10 of IC50.
- Test system: Toxoplasma gondii
- Test summary: Antimicrobial activity against Toxoplasma gondii infected in HFF after 8 days by plaque assay
- Type: functional, organism-based
- Details: 192 h
Recall that a logarithmic scale is used here: each number is log10 of IC50 in µM.

Request: Give the value of log10 of IC50 reported for the following: CCCN(CCC)c1c([N+](=O)[O-])cc(S(=O)(=O)Nc2ccccc2)cc1[N+](=O)[O-]
Response: 0.83

Request: Give the value of log10 of IC50 reported for the following: CCCN(CCC)c1c([N+](=O)[O-])cc([N+](=O)[O-])cc1C(F)(F)F
Response: 0.89

Request: Give the value of log10 of IC50 reported for the following: CCCCN(CCCC)c1c([N+](=O)[O-])cc(S(N)(=O)=O)cc1[N+](=O)[O-]
Response: 0.04

Request: Give the value of log10 of IC50 reported for the following: CCCN(CCC)c1c([N+](=O)[O-])cc(C(F)(F)F)cc1[N+](=O)[O-]
Response: -0.19

Request: Give the value of log10 of IC50 reported for the following: CCCN(CCC)c1c(C#N)cc(S(N)(=O)=O)cc1C#N
Response: 0.68

Request: Give the value of log10 of IC50 reported for the following: CC(C)CN(CC(C)C)c1c([N+](=O)[O-])cc(S(N)(=O)=O)cc1[N+](=O)[O-]
Response: -0.46

Request: Give the value of log10 of IC50 reported for the following: NS(=O)(=O)c1cc([N+](=O)[O-])c(N(Cc2ccccc2)CC2CC2)c([N+](=O)[O-])c1
Response: 0.32

Request: Give the value of log10 of IC50 reported for the following: CCCN(CCC)c1c([N+](=O)[O-])cc(S(=O)(=O)NCCO)cc1[N+](=O)[O-]
Response: 1.41

Request: Give the value of log10 of IC50 reported for the following: NS(=O)(=O)c1cc([N+](=O)[O-])c(N(CCCl)Cc2ccccc2)c([N+](=O)[O-])c1
Response: -0.07
